Known Ki of a selection of compounds
# Assayed System: UniProt:P30968
# Sequence (P30968 whole entry): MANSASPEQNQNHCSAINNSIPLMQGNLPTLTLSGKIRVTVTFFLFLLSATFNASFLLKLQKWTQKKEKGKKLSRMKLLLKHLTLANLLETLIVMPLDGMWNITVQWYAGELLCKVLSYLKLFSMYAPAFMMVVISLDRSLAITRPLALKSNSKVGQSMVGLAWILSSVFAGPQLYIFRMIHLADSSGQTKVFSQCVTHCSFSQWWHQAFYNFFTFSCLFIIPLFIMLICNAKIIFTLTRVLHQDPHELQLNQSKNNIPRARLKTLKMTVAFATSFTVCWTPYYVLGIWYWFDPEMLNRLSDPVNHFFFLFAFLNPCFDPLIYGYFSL

[
  {
    "Structure Smiles String": "Cc1c(-c2ccccc2F)c(=O)n(C[C@H](N)c2ccccc2)c(=O)n1CC1CC1",
    "Ki": "1100 nM"
  },
  {
    "Structure Smiles String": "COc1ccccc1Cn1c(C)c(-c2ccccc2F)c(=O)n(C[C@H](N)c2ccccc2)c1=O",
    "Ki": "230 nM"
  },
  {
    "Structure Smiles String": "Cc1c(-c2ccccc2F)c(=O)n(C[C@H](N)c2ccccc2)c(=O)n1Cc1ccc(F)cc1Cl",
    "Ki": "33 nM"
  },
  {
    "Structure Smiles String": "Cc1c(-c2ccccc2F)c(=O)n(C[C@H](N)c2ccccc2)c(=O)n1Cc1c(F)cccc1Cl",
    "Ki": "0.7 nM"
  },
  {
    "Structure Smiles String": "Cc1c(-c2ccccc2F)c(=O)n(C[C@H](N)c2ccccc2)c(=O)n1Cc1ccccn1",
    "Ki": "77 nM"
  }
]

// next entry
Look up and state reported Ki for Cc1c(-c2ccccc2F)c(=O)n(C[C@H](N)c2ccccc2)c(=O)n1CCN(C)C
> 10000 nM
